From: patent US9789082B2

# TEST_DESCRIPTION: Metabolic stability in pooled human liver microsomes (half-life)
# Format: in vitro ADME
# REPORTED_CONDITIONS: pooled human liver microsomes, pH 7.6, 37° C., 1 μM test compound, read-out: Half-life t1/2
Reported half-life at 1 μM values for a set of molecules

Some solved entries appear below for comparison.
CC(C)(NC(=O)[C@H]1[C@@H]2CNC[C@@H]21)c1ncc2c(C3CC3)cccn12
> 2.17 h
Cc1cccc2c(C(C)(C)NC(=O)[C@H]3[C@@H]4CNC[C@@H]43)ncnc12
> 2.17 h
Cc1cc(C(C)(C)NC(=O)[C@H]2[C@@H]3CNC[C@@H]32)c2ccccc2n1
> 2.17 h
CCc1ccccc1OCC(C)(C)NC(=O)[C@H]1[C@@H]2CNC[C@@H]21.Cl
> 2.17 h
CC(C)(COc1ccccc1C(F)(F)F)NC(=O)[C@H]1[C@@H]2CNC[C@@H]21.Cl
> 2.17 h
Cc1cccnc1C(C)(C)NC(=O)[C@H]1[C@@H]2CNC[C@@H]21.Cl.Cl
> 2.17 h

In plain terms, `CC(C)(NC(=O)[C@H]1[C@@H]2CNC[C@@H]21)c1ncnc2c(Cl)cccc12` has a documented half-life at 1 μM of > 2.17 h

In plain terms, `O=C(NC1(Cc2ccccc2C(F)(F)F)CC1)[C@H]1[C@@H]2CNC[C@@H]21` has a documented half-life at 1 μM of > 2.17 h
